Let's look at some compounds and their measured Quantum Yield (relative fluorescence quantum yield ΦFrel).
assay_text: Photophysical characterization of probes and uncaged forms (relative fluorescence quantum yield, extinction coefficient, brightness)
Type: physicochemical
experimental_conditions: standard fluorescein
measured_parameter: Quantum Yield (relative fluorescence quantum yield ΦFrel)

{"columns": ["compound", "result"],
 "data": [
  ["CCCCCCCCCCCCCCCC(=O)OCC(COP(=O)([O-])OCC[N+](C)(C)Cc1cn(-c2ccc3c(c2)C(=O)OC32c3ccc(O)cc3Oc3cc(O)ccc32)nn1)OC(=O)CCCCCCCCCCCCCCC (racemic) [DPPC-TF]", 0.63],
  ["O=C1OC2(c3ccc(O)cc3Oc3cc(O)ccc32)c2ccc(-n3cc(COCCOCCOCCO)nn3)cc21 [TEG-TF]", 0.73],
  ["CCCCCCCCCCCCCCCC(=O)OCC(COP(=O)([O-])OCC[N+](C)(C)Cc1cn(-c2ccc3c(c2)C(=O)OC32c3ccc(OC(=O)OCc4ccc(B5OC(C)(C)C(C)(C)O5)cc4)cc3Oc3cc(OC(=O)OCc4ccc(B5OC(C)(C)C(C)(C)O5)cc4)ccc32)nn1)OC(=O)CCCCCCCCCCCCCCC (racemic) [DPPC-TF-H2O2]", 0.02],
  ["CC1(C)OB(c2ccc(COC(=O)Oc3ccc4c(c3)Oc3cc(OC(=O)OCc5ccc(B6OC(C)(C)C(C)(C)O6)cc5)ccc3C43OC(=O)c4cc(-n5cc(COCCOCCOCCO)nn5)ccc43)cc2)OC1(C)C [TEG-TF-H2O2]", 0.04]
]}
